# Test system: PC3 cells
# PROCEDURE DETAILS: NAMPT Cell Proliferation Assay (Cell Titer Glo; also performed in the presence of 0.3 mM nicotinamide mononucleotide)
# Format: cell-based
# RUN PARAMETERS: Homo sapiens, PC-3, 120 h, 5 days incubation, cell viability by Cell Titer Glo
# Procedure: NAMPT Cell Proliferation Assay PC3 cells were seeded in 96-well black plates (Corning #3904) at 500 cells/well in 90 μl of RPMI media containing 10% heat-inactivated FBS and incubated overnight at 37° C. and 5% CO2 to allow cells to attach to wells. […] Cells were incubated for 5 days at 37° C. and 5% CO2, then cell viability was measured using Cell Titer Glo reagent (Promega #G7571). […]
Rule: IC50 below 7 nM gives condition met, anything at or above gives condition not met.

CC(C)(C)CC(=O)N1CCC(c2ccc(NC(=O)C3CN(c4cccnn4)C3)cc2F)CC1 : condition met
O=C(Nc1ccc(C2CCN(C(=O)CC(F)(F)F)CC2)c(F)c1)C1CN(c2cccnn2)C1 : condition not met
O=C(Nc1ccc(CC2CCN(C(=O)c3ccccn3)CC2)cc1)C1CN(c2cccnn2)C1 : condition met

Note: attention shifts to another entry.
Enquiry: # TODO verify IC50 < 7 nM strictly for this compound: O=C(Nc1ccc(C2CCN(C(=O)CC3CC3)CC2)c(F)c1)C1CN(c2cccnn2)C1
Return: condition not met

---

// each record: one item and its IC50 for NAMPT (Homo sapiens, UniProt P43490)
Entry rule: numbers only, all in nM.

Enquiry: Which value of IC50 has been reported for O=C(Nc1ccc(OC2CCN(C(=O)CC3CCCC3)CC2)cc1)C1CN(c2cccnc2)C1 [Example 69] in the records?
Return: 0.918

Enquiry: Which value of IC50 has been reported for CCC(CC)C(=O)N1CCC(c2ccc(NC(=O)C3CN(c4cccnn4)C3)cc2)CC1 [Example 328] in the records?
Return: 0.614

Enquiry: Which value of IC50 has been reported for CC(=O)N[C@@H](CC(C)C)C(=O)N1CCC(c2ccc(NC(=O)C3CN(c4cccnn4)C3)cc2)CC1 [Example 385] in the records?
Return: 1.24

Enquiry: Which value of IC50 has been reported for Cc1ccc(C(=O)N2CCC(c3ccc(NC(=O)C4CN(c5cccnn5)C4)cc3)CC2)c(C)c1 [Example 358] in the records?
Return: 0.815

Enquiry: Which value of IC50 has been reported for COCC(=O)N1CCC(Oc2ccc(NC(=O)C3CN(c4cccnn4)C3)cc2)CC1 [Example 246] in the records?
Return: 0.676

---

# TESTED SYSTEM: NAMPT (human, recombinant, C-terminally His-tagged) (Homo sapiens)
# PROCEDURE DETAILS: Time-Resolved Fluorescence Resonance Energy Transfer (TR-FRET) Binding Assay of NAMPT
# RUN PARAMETERS: 6.8 nM NAMPT, 200 nM probe, equilibrated 3 hours, absence of substrates
Listing: IC50 of selected compounds
Entry rule: numbers only, all in nM.

In the examples that follow, each entry is paired with its recorded IC50.
Cc1cc(C)cc(C(=O)N2CCC(c3ccc(NC(=O)C4CN(c5cccnn5)C4)cc3)CC2)c1 : 37.4
CC(C)(O)C(=O)N1CCC(Oc2ccc(C(=O)NC3CN(c4cccnc4)C3)cc2)CC1 : 5880

Kindly consider the entry below.
Enquiry: Which value of IC50 has been reported for Cc1ccc(C(=O)N2CCC(Oc3ccc(NC(=O)C4CN(c5cccnc5)C4)cc3)CC2)s1 in the records?
Return: 41.6

---

# TESTED SYSTEM: UniProt:P43490
Listing: IC50 of selected compounds
Entry rule: numbers only, all in pM.

CCCC(=O)N1CCC(c2ccc(NC(=O)C3CN(c4cccnn4)C3)cc2)CC1 [Example 317] : 991
O=C(Nc1ccc(OC2CCN(C(=O)c3cccs3)CC2)cc1)C1CN(c2cccnc2)C1 [Example 61] : 675

Enquiry: I'm curious: which IC50 was measured for O=C(Nc1ccc(OC2CCN(C(=O)C3CCOC3)CC2)cc1)C1CN(c2cccnn2)C1 (stereo not drawn) [Example 226] tested on UniProt:P43490?
Return: 896

---

# TESTED SYSTEM: NAMPT (human, recombinant, C-terminally His-tagged) (Homo sapiens, UniProt P43490)
# Sequence (P43490 whole entry): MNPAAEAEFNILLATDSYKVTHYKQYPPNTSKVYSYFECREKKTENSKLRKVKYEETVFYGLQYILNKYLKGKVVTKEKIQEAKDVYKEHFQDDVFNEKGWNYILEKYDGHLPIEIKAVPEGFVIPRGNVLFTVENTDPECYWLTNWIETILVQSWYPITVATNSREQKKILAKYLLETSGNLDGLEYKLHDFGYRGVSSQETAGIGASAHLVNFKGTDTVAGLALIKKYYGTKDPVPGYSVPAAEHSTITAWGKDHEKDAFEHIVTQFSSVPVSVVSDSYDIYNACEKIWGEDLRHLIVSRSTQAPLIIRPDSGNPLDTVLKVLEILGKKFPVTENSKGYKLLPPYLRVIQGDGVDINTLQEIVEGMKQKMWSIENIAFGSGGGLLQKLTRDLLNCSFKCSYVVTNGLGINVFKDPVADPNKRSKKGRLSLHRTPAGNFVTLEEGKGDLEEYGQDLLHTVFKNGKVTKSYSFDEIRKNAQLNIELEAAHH
# PROCEDURE DETAILS: Time-Resolved Fluorescence Resonance Energy Transfer (TR-FRET) Binding Assay of NAMPT
# RUN PARAMETERS: 6.8 nM NAMPT, 200 nM probe, equilibrated 3 hours, absence of substrates
Rule: IC50 below 40 nM gives label 1, anything at or above gives label 0.

Enquiry: # TODO verify IC50 < 40 nM strictly for this compound: O=C(NC1CN(c2cccnc2)C1)c1ccc(OC2CCN(C(=O)CC3CCOCC3)CC2)cc1
Return: label 0

Enquiry: # TODO verify IC50 < 40 nM strictly for this compound: Cc1ncccc1N1CC(C(=O)Nc2ccc(C3CCN(C(=O)C(C)(C)O)CC3)cc2)C1
Return: label 0

Enquiry: # TODO verify IC50 < 40 nM strictly for this compound: Cc1cnc(C(=O)N2CCC(c3ccc(NC(=O)C4CN(c5cccnn5)C4)cc3)CC2)cn1
Return: label 0

Enquiry: # TODO verify IC50 < 40 nM strictly for this compound: Cc1ccc(C)c(C(=O)N2CCC(c3ccc(NC(=O)C4CN(c5cccnn5)C4)cc3)CC2)c1
Return: label 1

Enquiry: # TODO verify IC50 < 40 nM strictly for this compound: Cc1ncccc1N1CC(C(=O)Nc2ccc(C3CCN(C(=O)C(C)(C)C)CC3)cc2)C1
Return: label 0

---

# TESTED SYSTEM: NAMPT (human, recombinant, C-terminally His-tagged) (Homo sapiens, UniProt P43490)
# PROCEDURE DETAILS: Time-Resolved Fluorescence Resonance Energy Transfer (TR-FRET) Binding Assay of NAMPT
# RUN PARAMETERS: 6.8 nM NAMPT, 200 nM probe, equilibrated 3 hours, absence of substrates
Listing: pIC50 of selected molecules
# log scale: pIC50 equals minus log10 of the concentration in mol/L

Enquiry: Which value of pIC50 has been reported for Cc1ncccc1N1CC(C(=O)Nc2ccc(C3CCN(C(=O)CC(F)(F)F)CC3)cc2)C1 in the records?
Return: 6.85

Enquiry: Which value of pIC50 has been reported for O=C(Nc1ccc(OC2CCN(C(=O)c3ccc(F)c(F)c3)CC2)cc1)C1CN(c2cccnn2)C1 in the records?
Return: 6.73

Enquiry: Which value of pIC50 has been reported for O=C(Nc1ccc(OC2CCN(C(=O)c3ccccc3Cl)CC2)cc1)C1CN(c2cccnn2)C1 in the records?
Return: 7.50

Enquiry: Which value of pIC50 has been reported for CC(C)(C)OC(=O)N1CCC(Oc2ccc(NC(=O)[C@@H]3CCN(c4cccnc4)C3)cc2)CC1 in the records?
Return: 5.06

Enquiry: Which value of pIC50 has been reported for O=C(Nc1ccc(OC2CCN(C(=O)c3cccs3)CC2)cc1)C1CN(c2ccnnc2)C1 in the records?
Return: 7.51

Enquiry: Which value of pIC50 has been reported for CCC(C)CN1CCC(Oc2ccc(NC(=O)C3CN(c4cccnc4)C3)cc2)CC1 (stereo not shown) in the records?
Return: 5.80

Enquiry: Which value of pIC50 has been reported for O=C(Nc1ccc(OC2CN(C(=O)Cc3ccc(F)cc3)C2)cc1)C1CN(c2ccnnc2)C1 in the records?
Return: 7.47

Enquiry: Which value of pIC50 has been reported for CCC(CC)CN1CCC(Oc2ccc(NC(=O)C3CN(c4cccnc4)C3)cc2)CC1 in the records?
Return: 6.58

Enquiry: Which value of pIC50 has been reported for O=C(Nc1ccc(OC2CN(C(=O)C3CCC3)C2)cc1)C1CN(c2ccnnc2)C1 in the records?
Return: 7.20

Enquiry: Which value of pIC50 has been reported for O=C(Nc1ccc(OC2CCN(C(=O)CC(F)(F)F)CC2)cc1)C1CN(c2cccnn2)C1 in the records?
Return: 6.62

Enquiry: Which value of pIC50 has been reported for O=C(Nc1ccc(OC2CCN(C(=O)CC3CCOCC3)CC2)cc1)C1CN(c2cccnc2C(F)(F)F)C1 in the records?
Return: 6.45

Enquiry: Which value of pIC50 has been reported for O=C(Nc1ccc(OC2CCN(C(=O)CC3CCCCC3)CC2)cc1)C1CN(c2cccnc2)C1 in the records?
Return: 7.20

Enquiry: Which value of pIC50 has been reported for CC(C)(O)C(=O)N1CCC(c2ccc(NC(=O)C3CN(c4cccnc4)C3)cc2)CC1 in the records?
Return: 8.17

---

Listing: pIC50 of selected molecules
# TESTED SYSTEM: NAMPT (human, recombinant, C-terminally His-tagged) (Homo sapiens, UniProt P43490)
# PROCEDURE DETAILS: Time-Resolved Fluorescence Resonance Energy Transfer (TR-FRET) Binding Assay of NAMPT
# RUN PARAMETERS: 6.8 nM NAMPT, 200 nM probe, equilibrated 3 hours, absence of substrates
# log scale: pIC50 equals minus log10 of the concentration in mol/L

In the examples that follow, each entry is paired with its recorded pIC50.
O=C(Nc1ccc(OC2CCN(C(=O)c3ccc(OC(F)(F)F)cc3)CC2)cc1)C1CN(c2ccnnc2)C1 : 7.00
Cc1ccc(C(=O)N2CCC(Oc3ccc(NC(=O)C4CN(c5cccnn5)C4)cc3)CC2)s1 : 6.98

Enquiry: Which value of pIC50 has been reported for O=C(Nc1ccc(C2CCN(C(=O)c3ccc(C(F)(F)F)cc3)CC2)cc1)C1CN(c2cccnn2)C1 in the records?
Return: 6.94

Enquiry: Which value of pIC50 has been reported for Cc1ccc(C(=O)N2CCC(c3ccc(NC(=O)C4CN(c5cccnc5C)C4)cc3)CC2)s1 in the records?
Return: 7.00
